Biological target: Beta-glucosidase A (Caldicellulosiruptor saccharolyticus, UniProt P10482)
Sequence (P10482 whole entry): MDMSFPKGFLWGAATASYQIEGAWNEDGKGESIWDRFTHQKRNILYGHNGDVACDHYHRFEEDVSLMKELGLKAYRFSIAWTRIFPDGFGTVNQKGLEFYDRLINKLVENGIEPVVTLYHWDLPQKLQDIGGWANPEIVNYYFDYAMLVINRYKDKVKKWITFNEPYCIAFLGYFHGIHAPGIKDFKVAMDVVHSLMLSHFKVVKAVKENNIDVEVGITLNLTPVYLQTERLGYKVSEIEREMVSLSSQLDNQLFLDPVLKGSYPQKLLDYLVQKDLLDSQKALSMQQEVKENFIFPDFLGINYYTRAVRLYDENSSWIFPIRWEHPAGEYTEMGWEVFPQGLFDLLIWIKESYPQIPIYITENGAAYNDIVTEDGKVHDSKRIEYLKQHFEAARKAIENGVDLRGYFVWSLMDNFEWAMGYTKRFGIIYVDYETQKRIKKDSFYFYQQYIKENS
pKi: −log10 of the molar value.
Property Label: pKi

[1] OC1CNC(CNCC2CCN(Cc3ccccc3)CC2)C1O (configuration not stated)
[2] OC1CNC(CNCc2ccco2)C1O (configuration not stated)
Prompt line: Which shows the larger pKi value: 1 or 2 ? Could you answer with the label of the item you picked?
Response line: 2
(2: 4.22, 1: 3.92)

====

Assay: Inhibitory activity towards Alpha-glucosidase from Baker yeast (isomaltase)
Design: species or system Saccharomyces cerevisiae
Property Label: Ki (µM)

Prompt line: Which Ki reading was recorded for the molecule OC1CNC(CNCc2ccco2)C1O (centres undefined) ?
Response line: 45

Prompt line: Which Ki is reported for this molecule? OC1CNC(CNCC2CCN(Cc3ccccc3)CC2)C1O (centres undefined)
Response line: 40

[a] OC1CNC(CNCn2ccnc2)C1O (centres undefined)
[b] OC1CNC(CNC2CCCC2)C1O (centres undefined)
Prompt line: Lower value of Ki belongs to which: a or b ? Write the label of whichever entry you select.
Response line: a
(a: 40 µM, b: 71 µM)
